target-desc: Cbl-b (Homo sapiens, UniProt Q13191)
Construct: Cbl-b-HiBit KI Jurkat Cells were purchased from Promega; host or cells: Cbl-b-HiBiT knock-in Jurkat cells
Sequence (Q13191 whole entry): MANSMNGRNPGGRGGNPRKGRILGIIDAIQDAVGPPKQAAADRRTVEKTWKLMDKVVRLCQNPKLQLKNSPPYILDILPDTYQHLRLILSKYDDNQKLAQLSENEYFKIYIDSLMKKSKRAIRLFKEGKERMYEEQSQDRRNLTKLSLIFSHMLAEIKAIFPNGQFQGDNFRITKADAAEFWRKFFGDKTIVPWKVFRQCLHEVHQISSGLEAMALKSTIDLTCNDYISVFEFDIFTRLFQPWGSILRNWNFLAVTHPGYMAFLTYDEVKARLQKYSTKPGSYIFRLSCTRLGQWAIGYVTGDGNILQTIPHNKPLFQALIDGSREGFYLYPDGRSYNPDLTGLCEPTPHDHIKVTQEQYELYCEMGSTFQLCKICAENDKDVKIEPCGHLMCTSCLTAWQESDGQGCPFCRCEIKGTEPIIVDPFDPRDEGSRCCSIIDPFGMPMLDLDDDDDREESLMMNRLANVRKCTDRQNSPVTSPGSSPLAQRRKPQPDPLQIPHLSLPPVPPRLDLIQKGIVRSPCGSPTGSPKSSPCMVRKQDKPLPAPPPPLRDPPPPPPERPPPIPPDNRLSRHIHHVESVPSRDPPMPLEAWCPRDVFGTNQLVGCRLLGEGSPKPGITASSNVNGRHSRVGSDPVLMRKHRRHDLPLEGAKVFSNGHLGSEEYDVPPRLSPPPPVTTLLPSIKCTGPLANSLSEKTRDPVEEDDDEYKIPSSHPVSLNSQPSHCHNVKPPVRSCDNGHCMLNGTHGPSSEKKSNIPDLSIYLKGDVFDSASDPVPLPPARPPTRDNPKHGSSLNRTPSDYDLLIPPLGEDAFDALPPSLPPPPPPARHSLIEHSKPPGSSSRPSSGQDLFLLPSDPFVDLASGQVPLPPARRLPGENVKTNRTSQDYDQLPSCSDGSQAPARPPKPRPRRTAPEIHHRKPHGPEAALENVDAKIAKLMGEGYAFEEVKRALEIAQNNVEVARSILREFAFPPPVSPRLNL
protocol-details: Cbl-b Degradation Method A (FACS, anti-Cbl-b antibody staining)
Assay type: cell-based
setup-conditions: Cbl-b-HiBit KI Jurkat Cells, incubated at least 20 hours; half maximal degradation; read-out: Cbl-b Degredation Method A IC50
quantity-kind: DC50

Reference set (2 entries):
- Cn1cnnc1CC1(c2cccc(N3Cc4c(cc(N5CCC(CN6CCC7(CC6)CN(c6ccc8c(c6)C(=O)N(C6CCC(=O)NC6=O)C8=O)C7)CC5)cc4C(F)(F)F)C3=O)c2)COC1 (centres unmarked): 50 to 500 nM
- CC1CN(C[C@H]2CC[C@@H](OC3CCN(c4ccc5c(c4F)CN(C4CCC(=O)NC4=O)C5=O)CC3)CC2)CCN1C[C@H]1CCCN(Cc2cc3c(c(C(F)(F)F)c2)CN(c2cccc(C4(Cc5nncn5C)COC4)c2)C3=O)C1 (some centres unmarked): < 5 nM

DC50 reported for this compound Cn1cnnc1CC1(c2cccc(N3Cc4c(cc(CN5CCN(C[C@H]6CC[C@H](OC7CCN(c8cccc9c8n(C8CC8)c(=O)n9C8CCC(=O)NC8=O)CC7)CC6)CC5(C)C)cc4C(F)(F)F)C3=O)c2)CC(C#N)C1 (some centres unmarked) : 50 to 500 nM

DC50 reported for this compound CC1CN(C[C@H]2CC[C@H](OC3CCN(c4ccc5c(n4)C(C)N(C4CCC(=O)NC4=O)C5=O)CC3)CC2)CCN1Cc1cc2c(c(C(F)(F)F)c1)CN(c1cccc(C3(Cc4nncn4C)CCC3)c1)C2=O (some centres unmarked) : 5 to 50 nM

DC50 reported for this compound Cn1cnnc1CC1(c2cccc(N3Cc4c(cc(N5CC6(CCN(C[C@H]7CC[C@H](OC8CCN(c9ccc%10c(c9Cl)CN(C9CCC(=O)NC9=O)C%10=O)CC8)CC7)CC6)C5)cc4C(F)(F)F)C3=O)c2)COC1 (some centres unmarked) : < 5 nM

###

target-desc: Cbl-b (Homo sapiens)
Construct: Cbl-b-HiBit KI Jurkat Cells were purchased from Promega; host or cells: Cbl-b-HiBiT knock-in Jurkat cells
protocol-details: Cbl-b Degradation Method A (FACS, anti-Cbl-b antibody staining)
Type: cell-based
setup-conditions: Jurkat, Cbl-b-HiBit KI Jurkat Cells, incubated at least 20 hours; maximum degradation observed; read-out: Cbl-b Degredation Method A Dmax (%)
Source text: Cbl-b Degradation Method A Cbl-b-HiBit KI Jurkat Cells were purchased from Promega, and cell media consisted of RPMI 1640 with 10% FBS and 1% pen/strep. […] The concentration of an exemplary compound that leads to half maximal degradation (DC50) as well as the maximum degradation observed (Dmax, conventionally expressed as a percentage of control) is shown below in Table 2.
Some compounds, each annotated with its measured Dmax.

Dmax reported for this compound CC(C)n1c(=O)n(C2CCC(=O)NC2=O)c2cccc(N3CCC(O[C@H]4CC[C@H](CN5CC6(CN(Cc7cc8c(c(C(F)(F)F)c7)CN(c7cccc([C@]9(Cc%10nncn%10C)C[C@@H](C#N)C9)c7)C8=O)C6)C5)CC4)CC3)c21 (some centres unmarked) : 35 to 70%

Dmax reported for this compound CC1c2c(cc(CN3CCC[C@H](CN4CCN(C[C@H]5CC[C@H](OC6CCN(c7ccc8c(c7F)CN(C7CCC(=O)NC7=O)C8=O)CC6)CC5)CC4(C)C)C3)cc2C(F)(F)F)C(=O)N1c1cccc(C2(Cc3nncn3C)COC2)c1 (some centres unmarked) : < 35%

Dmax reported for this compound CC1c2nc(N3CCC(O[C@H]4CC[C@H](CN5CCN(Cc6cc7c(c(C(F)(F)F)c6)CN(c6cccc(C8(Cc9nncn9C9CC9)COC8)c6)C7=O)CC5)CC4)CC3)ccc2C(=O)N1C1CCC(=O)NC1=O (some centres unmarked) : < 35%

Dmax reported for this compound Cn1cnnc1CC1(c2cccc(N3Cc4c(cc(CN5CC6(CCN(CC7CCN(c8ccc9c(c8F)CN(C8CCC(=O)NC8=O)C9=O)CC7)CC6)C5)cc4C(F)(F)F)C3=O)c2)COC1 (centres unmarked) : < 35%

Dmax reported for this compound Cn1cnnc1CC1(c2cccc(N3Cc4c(cc(N5CC6(CCN(CC7CCN(c8ccc9c(c8F)CN(C8CCC(=O)NC8=O)C9=O)CC7)CC6)C5)cc4C(F)(F)F)C3=O)c2)COC1 (centres unmarked) : 35 to 70%

###

target-desc: Cbl-b (Homo sapiens)
Construct: Cbl-b-HiBit KI Jurkat Cells were purchased from Promega; host or cells: Cbl-b-HiBiT knock-in Jurkat cells
protocol-details: Cbl-b Degradation Method A (FACS, anti-Cbl-b antibody staining)
Type: cell-based
setup-conditions: Cbl-b-HiBit KI Jurkat Cells, incubated at least 20 hours; half maximal degradation; read-out: Cbl-b Degredation Method A IC50
Description: Cbl-b Degradation Method A Cbl-b-HiBit KI Jurkat Cells were purchased from Promega, and cell media consisted of RPMI 1640 with 10% FBS and 1% pen/strep. […] The concentration of an exemplary compound that leads to half maximal degradation (DC50) as well as the maximum degradation observed (Dmax, conventionally expressed as a percentage of control) is shown below in Table 2.
Some compounds, each annotated with its measured DC50.

DC50 reported for this compound Cn1cnnc1CC1(c2cccc(N3Cc4c(cc(N5CCN(C[C@H]6CC[C@H](OC7CCN(c8ccc9c(c8F)CN(C8CCC(=O)NC8=O)C9=O)CC7)CC6)CC5)cc4C(F)(F)F)C3=O)c2)COC1 (stereo partly drawn) : 0.005 to 0.05 µM

###

target-desc: Cbl-b (Homo sapiens, UniProt Q13191)
Construct: Cbl-b-HiBit KI Jurkat Cells were purchased from Promega; host or cells: Cbl-b-HiBiT knock-in Jurkat cells
protocol-details: Cbl-b Degradation Method B (Nano-Glo HiBiT lytic detection)
Assay type: cell-based
setup-conditions: Cbl-b-HiBit KI Jurkat Cells, incubated at least 6-24 hours; maximum degradation observed; read-out: Cbl-b Degredation Method B Dmax (%)
Some molecules, each annotated with its measured Dmax.

* CC(C)n1c(=O)n(C2CCC(=O)NC2=O)c2ccc(N3CCC(O[C@H]4CC[C@@H](CN5CCN(C[C@H]6CCCN(Cc7cc(C(F)(F)F)c8cn(-c9cccc(C%10(Cc%11nncn%11C)COC%10)c9)nc8c7)C6)CC5)CC4)CC3)cc21 (stereo partly drawn) [Example 268] | > 70%

Dmax reported for this molecule CC1c2nc(N3CCC(O[C@H]4CC[C@@H](CN5C[C@@H]6C[C@H]5CN6Cc5cc6c(c(C(F)(F)F)c5)CN(c5cccc(C7(Cc8nncn8C)CC7)c5)C6=O)CC4)CC3)ccc2C(=O)N1C1CCC(=O)NC1=O (stereo partly drawn) [Example 218] : 35 to 70%

Dmax reported for this molecule Cn1cnnc1CC1(c2cccc(N3Cc4c(cc(N5CC6(CCN(CC7CCN(c8cccc9c8CN(C8CCC(=O)NC8=O)C9=O)CC7)CC6)C5)cc4C(F)(F)F)C3=O)c2)COC1 (stereo not drawn) [Example 119] : < 35%

###

target-desc: Cbl-b (Homo sapiens)
Construct: Cbl-b-HiBit KI Jurkat Cells were purchased from Promega; host or cells: Cbl-b-HiBiT knock-in Jurkat cells
protocol-details: Cbl-b Degradation Method B (Nano-Glo HiBiT lytic detection)
Assay type: cell-based
setup-conditions: Cbl-b-HiBit KI Jurkat Cells, incubated at least 6-24 hours; half maximal degradation; read-out: Cbl-b Degredation Method B IC50
Description: Cbl-b Degradation Method B [table] Cbl-b-HiBit KI Jurkat Cells were purchased from Promega, and cell media consisted of RPMI 1640 with 10% […] and 1% pen/strep. The cells were counted, measured for viability, and 35 μL of the cell solution was seeded into 384 well flat bottom plates at a ratio of 20,000 cells per 35 μL. […] After incubation, 30 μL of either NanoGlo media was added to each cell, and the plates read on the Synergy Neo2 machine. […]
Some molecules, each annotated with its measured DC50.

- Cn1cnnc1[C@]1(c2cccc(N3Cc4c(cc(CN5CCC[C@H](CN6CCN(C[C@H]7CC[C@@H](OC8CCN(c9ccc%10c(c9F)CN(C9CCC(=O)NC9=O)C%10=O)CC8)CC7)CC6)C5)cc4C(F)(F)F)C3=O)c2)C[C@@H](C)C1 (stereo partly shown): < 5 nM
- CC(C)n1c(=O)n(C2CCC(=O)NC2=O)c2cccc(N3CCC(O[C@H]4CC[C@H](CN5CCC6(CC5)CN(Cc5cc7c(c(C(F)(F)F)c5)CN(c5cccc([C@]8(Cc9nncn9C)C[C@@H](C#N)C8)c5)C7=O)C6)CC4)CC3)c21 (stereo partly shown): < 5 nM
- Cn1cnnc1CC1(c2cccc(-n3cc4c(C(F)(F)F)cc(CN5CCC[C@H](CN6CCC(OC7CCN(c8ccc9c(c8F)CN(C8CCC(=O)NC8=O)C9=O)CC7)CC6)C5)cc4n3)c2)COC1 (stereo partly shown): > 500 nM

Next, consider the following molecule.
DC50 reported for this molecule Cn1cnnc1CC1(c2cccc(N3Cc4c(cc(CN5CC[C@H](CN6CCN(C[C@H]7CC[C@H](OC8CCN(c9ccc%10c(c9F)CN(C9CCC(=O)NC9=O)C%10=O)CC8)CC7)CC6)C5)cc4C(F)(F)F)C3=O)c2)COC1 (stereo partly shown) : < 5 nM
